Target or system: T1, human MSLN-FL-his protein (human, UniProt Q13421 296-580)
T1 construct: made in HEK293E cells, purified on nickel column; also called hMSLN-FL-his; human MSLN full-length protein; not shown: His tag
T1 sequence (Q13421 other isoform, or with tags, fused parts or gaps): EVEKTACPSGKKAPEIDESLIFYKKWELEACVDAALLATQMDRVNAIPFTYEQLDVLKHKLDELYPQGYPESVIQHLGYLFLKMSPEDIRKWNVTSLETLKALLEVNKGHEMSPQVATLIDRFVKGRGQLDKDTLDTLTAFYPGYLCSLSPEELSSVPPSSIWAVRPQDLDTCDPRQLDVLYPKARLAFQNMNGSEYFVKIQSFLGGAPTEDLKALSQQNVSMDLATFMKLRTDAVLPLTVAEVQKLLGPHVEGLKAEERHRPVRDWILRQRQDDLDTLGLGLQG
Test summary: competitive ELISA; row F2.13.3; also: test concentration or dose not given here
This listing pairs binders with measured competition rate.
Write the answer as a number in %, unit excluded.

Example cases with answers are listed next.
Binder	competition rate, %
S009-F1.2.12 (antibody, human IgG1, kappa, V domains shown, human-murine chimeric antibody, human IgG1/kappa constant regions) VH: QVQLKQTGPGLVQPSQSLSITCTVSGFSLTNYAVHWVRQSPGKGLEWLGVIWSGGATDYNTVFISRLSISKDNSKSQVFFKVNSLQVDDTAIYYCARTGSGYAMDYWGQGTSVTVSS VL: DIVLTQSPATLSVTPGDRVSLSCRTSHNVNTYLHWYQQKSHESPRLLIKYASQSISEIPSRFSGSGSGTNFTLSINSVETEDFGMYFCHQTNRWPLTFGAGTKLELKR	54
Tab107 (YP3, hIgG1) (antibody, V domains shown, Control antibody; VH and VL recombined into human IgG1 CH and CL expression vectors; also called YP3 human IgG1 antibody) VH: QEQLVESGGGLVQPGASLTLTCTASGIDFSRYYMCWVRQAPGKGLEGIACIYIGGSGSTYYASWAKGRFTISKASSTTVTLQMTSLTAADTATYFCARGTNLNYIFRLWGPGTLVTVSS VL: DVVMTQTPSPVSAAVGGTVTIKCQASQSINNGLAWYQQKPGQPPRLLIYSASNLESGVPSRFKGSGSGTEFTLTISDLECDDAATYYCQCIWDGNSYVNAFGGGTEVVVRT	-203

# evaluate next
[ask] Value lookup for competition rate; key = S009-F2.47.1 (antibody, human IgG1, kappa, V domains shown, human-murine chimeric antibody, human IgG1/kappa constant regions) VH: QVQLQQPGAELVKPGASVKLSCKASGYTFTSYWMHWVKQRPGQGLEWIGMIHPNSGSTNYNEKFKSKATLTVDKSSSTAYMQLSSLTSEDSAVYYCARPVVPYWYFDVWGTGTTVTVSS VL: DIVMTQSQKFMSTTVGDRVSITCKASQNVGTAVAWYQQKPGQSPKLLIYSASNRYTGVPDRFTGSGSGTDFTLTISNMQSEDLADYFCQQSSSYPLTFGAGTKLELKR
[reply] -975
